System: TTR
Assay: TTR editing in primary human hepatocytes transfected with Spy Cas9 protein (RNP) loaded with dgRNAs (Table 8)
Format: cell-based
Conditions: dgRNA transfected with Spy Cas9 protein (RNP)
assayEndpoint: Avg % Edit
Could you give the number and then its unit, please?

Examples from the recorded data:
macromoleculeSequence: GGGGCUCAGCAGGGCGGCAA (tested as dual guide RNA, chemistry not given here) [CR003381]
Avg % Edit: 7.15%

macromoleculeSequence: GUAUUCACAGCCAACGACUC (tested as dual guide RNA, chemistry not given here) [CR003373]
Avg % Edit: 3.64%

macromoleculeSequence: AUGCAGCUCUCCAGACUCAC (tested as dual guide RNA, chemistry not given here) [CR003358]
Avg % Edit: 31.62%

macromoleculeSequence: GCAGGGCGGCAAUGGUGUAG (tested as dual guide RNA, chemistry not given here) [CR003380]
Avg % Edit: 8.17%

macromoleculeSequence: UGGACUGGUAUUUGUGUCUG (tested as dual guide RNA, chemistry not given here) [CR003340]
Avg % Edit: 10.44%

Here is the next item to consider.
Enquiry: Fill in the blank: the reported Avg % Edit of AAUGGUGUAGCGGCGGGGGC (tested as dual guide RNA, chemistry not given here) [CR003375] is ____.
Return: 5.04%

Data provenance: patent US11795460B2
